Ref: patent US8153631B2

molecular target: human HSD1 (recombinant HSD1) (Homo sapiens); test: In vitro HSD1 activity inhibitory action, SPA of cortisone to cortisol conversion; conditions: recombinant human HSD1 0.1 μg/ml, 500 μM NADPH, 16 nM 3H cortisone, room temperature 90 min, read-out: hHSD1 IC50
pIC50: −log10 of the molar value.
Readout name: pIC50

Ask | Quick one: pIC50 of `CN(O)C(=O)Nc1ccc(-c2nnc(C3(c4ccccc4)CC3)n2C)c(Cl)c1` ?
Reply | > 8.00

# ---- query compound ----
Ask | I am curious: what pIC50 value has been reported for `Cn1c(C2CCN(Cc3ccc(Cl)cc3Cl)CC2)nnc1C1(c2ccccc2)CC1` ?
Reply | 6.00 to 8.00

---

Target: human HSD1 (recombinant HSD1) (Homo sapiens, UniProt P28845)
Sequence (P28845 whole entry): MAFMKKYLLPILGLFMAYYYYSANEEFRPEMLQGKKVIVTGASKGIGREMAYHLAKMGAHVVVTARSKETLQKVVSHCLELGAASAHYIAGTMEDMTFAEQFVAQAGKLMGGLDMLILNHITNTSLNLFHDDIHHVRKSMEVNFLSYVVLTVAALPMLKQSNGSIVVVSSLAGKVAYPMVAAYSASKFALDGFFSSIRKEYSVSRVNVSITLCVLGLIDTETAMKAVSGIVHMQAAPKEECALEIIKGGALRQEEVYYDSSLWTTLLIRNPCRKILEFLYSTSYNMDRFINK
Test: In vitro HSD1 activity inhibitory action, SPA of cortisone to cortisol conversion
Conditions: recombinant human HSD1 0.1 μg/ml, 500 μM NADPH, 16 nM 3H cortisone, room temperature 90 min, read-out: hHSD1 IC50
Procedure: In Vitro HSD1 (Hydroxysteroid Dehydrogenase 1) Activity Inhibitory Action The HSD1 inhibitory activity was examined by quantitative determination by an SPA (scintillation proximity assay) system of the suppressive action on the conversion from cortisone to cortisol using human HSD1 (hereinafter recombinant HSD1) expressed using a baculo-virus system as an enzyme source. […] The IC50 value was analyzed using a computer-based curve fitting soft.
Readout name: IC50

Ask | What value of IC50 has been recorded for this entry: Cn1c(-c2ccc(NC(=O)N3CCC(O)CC3)cc2Cl)nnc1C1(c2ccccc2)CC1 [Ex. 1-42]
Reply | 10 to 1000 nM

# context switch: different molecule, same IC50
Ask | For the molecule Cn1c(N2CCC(C)(C)CC2)nnc1C1(c2ccccc2)CC1 [Ex. 2-58] , what IC50 is on record?
Reply | < 10 nM

---

molecular target: human HSD1 (recombinant HSD1) (Homo sapiens); assay: In vitro HSD1 activity inhibitory action, SPA of cortisone to cortisol conversion; conditions: recombinant human HSD1 0.1 μg/ml, 500 μM NADPH, 16 nM 3H cortisone, room temperature 90 min, read-out: hHSD1 IC50
pIC50: −log10 of the molar value.
Each entry below carries its reported pIC50.

Here is how some compounds turned out for pIC50.
Ask | Name the recorded pIC50 for `COC1CCN(CC(=O)Nc2ccc(-c3nnc(C4(c5ccccc5)CC4)n3C)c(Cl)c2)CC1` .
Reply | 6.00 to 8.00

Ask | // returns reported pIC50 for input `Cn1c(N2CCC(Oc3ccc(Cl)cc3)CC2)nnc1C1(c2ccccc2)CC1`
Reply | > 8.00

Ask | # get_value(readout='pIC50', item= `CC(C)n1c(-c2cccc(N3CCOC3=O)c2)nnc1C1(c2ccc(F)cc2)CC1` )
Reply | > 8.00

Ask | What value of measured pIC50 is listed for `Cn1c(N2CCC(C)(C(N)=O)CC2)nnc1C1(c2ccccc2)CC1` ?
Reply | > 8.00

Ask | Item under review: `CONC(=O)Nc1ccc(-c2nnc(C3(c4ccc(F)cc4)CC3)n2C(C)C)cc1` . Reported pIC50?
Reply | > 8.00

Continuing:
Ask | Looking for the measured pIC50 of `CCN(Cc1ccccc1)c1nnc(C2(c3ccccc3)CC2)n1C` , can you help?
Reply | > 8.00

Ask | Tell me the measured pIC50 of `Cn1c(N2CCC(Oc3ccc(Cl)c(C(N)=O)c3)CC2)nnc1C1(c2ccccc2)CC1` , please.
Reply | 6.00 to 8.00

Ask | Which pIC50 is listed for `CCn1c(-c2ccc(C(N)=O)cc2Cl)nnc1C1(c2ccc(F)cc2)CC1` ?
Reply | > 8.00

Ask | Need pIC50, item `Cn1c(N2CCC(Oc3ccccc3Cl)CC2)nnc1C1(c2ccccc2)CC1`
Reply | > 8.00

---

biological target: human HSD1 (recombinant HSD1) (Homo sapiens); test: In vitro HSD1 activity inhibitory action, SPA of cortisone to cortisol conversion; conditions: recombinant human HSD1 0.1 μg/ml, 500 μM NADPH, 16 nM 3H cortisone, room temperature 90 min, read-out: hHSD1 IC50
pIC50: −log10 of the molar value.
Examples of molecules with documented pIC50 follow.

Ask | Look up pIC50: Cn1c(N2CCSCC2)nnc1C1(c2ccccc2)CC1 [Ex. 2-21]
Reply | > 8.00

Ask | What pIC50 value was documented for this molecule, COc1cc(Cl)ccc1-c1nnc(C2(c3ccccc3)CC2)n1C [Ex. 1-91] ?
Reply | > 8.00

Ask | pIC50 lookup needed for Cn1c(-c2ccc(NC(=O)CN3CCC(O)CC3)cc2Cl)nnc1C1(c2ccccc2)CC1 [Ex. 1-43] , thanks.
Reply | 6.00 to 8.00

Others:
Ask | Recorded pIC50 of Cn1c(N2CCC(Oc3ccc(C#N)cc3)CC2)nnc1C1(c2ccccc2)CC1 [Ex. 2-52] , please.
Reply | > 8.00

Ask | Please look up its pIC50: Cn1c(-c2ccc(Cl)cc2Cl)nnc1C1(c2ccc(F)cc2)CC1 [Ex. 1-107]
Reply | > 8.00

Ask | pIC50 lookup needed for CN(C)C(=O)C1CCN(c2nnc(C3(c4ccccc4)CC3)n2C)CC1 [Ex. 2-19] , thanks.
Reply | 6.00 to 8.00

Ask | Given CONC(=O)Nc1ccc(-c2nnc(C3(c4ccc(F)cc4)CC3)n2C)c(Cl)c1 [Ex. 1-152] , state its recorded pIC50.
Reply | > 8.00

Ask | What measured pIC50 goes with Cn1c(-c2ccc(N3CCC(C(=O)N4CCOCC4)CC3)cc2Cl)nnc1C1(c2ccccc2)CC1 [Ex. 1-114] ?
Reply | > 8.00

Ask | Suppose we examine the molecule Clc1cnc(OC2CCN(c3nnc(C4(c5ccccc5)CC4)n3C3CC3)CC2)c(Cl)c1 [Ex. 2-78] ; what pIC50 value has been reported?
Reply | > 8.00

---

target: human HSD1 (recombinant HSD1) (Homo sapiens); test: In vitro HSD1 activity inhibitory action, SPA of cortisone to cortisol conversion; settings: recombinant human HSD1 0.1 μg/ml, 500 μM NADPH, 16 nM 3H cortisone, room temperature 90 min, read-out: hHSD1 IC50
IC50 overview

Ask | Which IC50 is listed for `COc1ccc(-c2nnc(C3(c4ccccc4)CC3)n2C)c(Cl)c1` ?
Reply | < 10 nM

Ask | Value lookup for IC50; key = `C=CCn1c(N2CCC(Oc3ncc(Cl)cc3Cl)CC2)nnc1C1(c2ccccc2)CC1`
Reply | < 10 nM

Ask | Look at this compound and give its reported IC50. `Cn1c(-c2ccc(N3CCNC3=O)cc2Cl)nnc1C1(c2ccccc2)CC1`
Reply | < 10 nM

Ask | Would you mind telling me what IC50 value was observed for `CC(=O)NCCn1c(C2CCN(c3c(Cl)cncc3Cl)CC2)nnc1C1(c2ccccc2)CC1` ?
Reply | 10 to 1000 nM

Ask | // IC50 lookup, key: `Cn1c(-c2ccccc2Cl)nnc1C1(c2ccc(F)cc2)CC1`
Reply | < 10 nM

Ask | Could you tell me which IC50 is on file for `Cn1c(N2CCC(O)CC2)nnc1C1(c2ccccc2)CC1` ?
Reply | < 10 nM

Ask | Look up IC50 for this compound: `Cn1c(-c2ccc([N+](=O)[O-])cc2Cl)nnc1C1(c2ccccc2)CC1`
Reply | < 10 nM

Ask | Look at this compound and give its reported IC50. `COC(=O)Nc1ccc(Cl)c(-c2nnc(C3(c4ccc(F)cc4)CC3)n2C)c1`
Reply | < 10 nM

Ask | Need IC50, item `Cn1c(-c2ccc(C(N)=O)cc2Cl)nnc1C1(c2ccc(F)cc2)CC1`
Reply | < 10 nM

Ask | Endpoint output: IC50 of `CCCn1c(N2CCC(Oc3ncc(Cl)cc3Cl)CC2)nnc1C1(c2ccccc2)CC1` . Value?
Reply | 10 to 1000 nM

Further cases:
Ask | For the compound `Cn1c(N2CCC(Oc3ncc(Cl)cc3Cl)CC2)nnc1C1(c2ccc(F)cc2)CC1` , what IC50 is on record?
Reply | < 10 nM

Ask | Which IC50 is reported for this compound? `Cn1c(N2CCCCC2)nnc1C1(c2ccccc2)CC1`
Reply | < 10 nM

---

Reported IC50 values are given for each entry in this list.
molecular target: human HSD1 (recombinant HSD1) (Homo sapiens, UniProt P28845); experiment: In vitro HSD1 activity inhibitory action, SPA of cortisone to cortisol conversion; conditions: recombinant human HSD1 0.1 μg/ml, 500 μM NADPH, 16 nM 3H cortisone, room temperature 90 min, read-out: hHSD1 IC50

Some compounds with recorded IC50:
Ask | Given the compound Cn1c(-c2ccc(S(C)(=O)=O)cc2Cl)nnc1C1(c2ccccc2)CC1 [Ex. 1-71] , what is its reported IC50?
Reply | < 10 nM

Ask | Entry CC(=O)NC1CCN(c2nnc(C3(c4ccccc4)CC3)n2C)CC1 [Ex. 2-9] : reported IC50 = ?
Reply | 10 to 1000 nM

// below: IC50 requested for another compound
Ask | Item under review: Cn1c(C2CCN(c3c(Cl)cncc3Cl)CC2)nnc1C1(c2ccccc2)CCNCC1 [Ex. 1-16] . Reported IC50?
Reply | 10 to 1000 nM
